Molecular target: T1, human Y2 receptor (human, UniProt P49146 1-381)
T1 construct: whole, on cells; used as membrane fraction of hY2R/CHO cells; also called human NPY2R; hY2R
T1 sequence (looked up): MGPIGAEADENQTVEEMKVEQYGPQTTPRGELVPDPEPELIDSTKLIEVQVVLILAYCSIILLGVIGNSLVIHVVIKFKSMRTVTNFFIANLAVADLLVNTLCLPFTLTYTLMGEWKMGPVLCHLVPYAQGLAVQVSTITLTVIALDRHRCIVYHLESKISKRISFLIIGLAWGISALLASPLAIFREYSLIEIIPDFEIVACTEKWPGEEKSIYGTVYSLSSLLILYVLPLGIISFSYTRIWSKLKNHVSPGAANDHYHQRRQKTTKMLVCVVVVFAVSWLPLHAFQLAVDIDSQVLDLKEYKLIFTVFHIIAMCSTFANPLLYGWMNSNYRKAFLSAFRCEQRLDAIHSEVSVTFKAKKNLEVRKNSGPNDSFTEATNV
Experiment: RBA: [125I]-PYY displacement, hY2R/CHO membranes
Non-standard residues stand in square brackets, D forms with d. No end group written: not given here. *: point of attachment. X11 = ((1S)-1-carboxy-3-methylbutyl)carbamoyl, CC(C)C[C@H](NC(=O)*)C(=O)O; Morpholinocarbonyl = O=C(N1CCOCC1)*; 4Pal = N[C@@H](Cc1ccncc1)C(=O)O; Cha = N[C@@H](CC1CCCCC1)C(=O)O; dCha = N[C@H](CC1CCCCC1)C(=O)O; 4Amb = NCc1ccc(C(=O)O)cc1; Aib = CC(C)(N)C(=O)O
Listing of entries alongside the reported IC50 Ratio (vs PYY(3-36)).
Note: unit ratio is implicit; provide only the numeric part.

Study these solved cases before continuing.
binder	recorded-value
[4Amb]RAQINLITRQRY-NH2 (N-terminus assumed; SMILES CC[C@H](C)[C@H](NC(=O)[C@H](CCC(N)=O)NC(=O)[C@H](C)NC(=O)[C@H](CCCNC(=N)N)NC(=O)c1ccc(CN)cc1)C(=O)N[C@@H](CC(N)=O)C(=O)N[C@@H](CC(C)C)C(=O)N[C@H](C(=O)N[C@H](C(=O)N[C@@H](CCCNC(=N)N)C(=O)N[C@@H](CCC(N)=O)C(=O)N[C@@H](CCCNC(=N)N)C(=O)N[C@@H](Cc1ccc(O)cc1)C(N)=O)[C@@H](C)O)[C@@H](C)CC, also called compound No. 30) [4-Aminomethylbenzoyl-[Ala26, Gln27, Ile28,31]-PYY(25-36)]	25
Ac-[dF]RAYINLITRQRY-NH2 (SMILES CC[C@H](C)[C@H](NC(=O)[C@H](Cc1ccc(O)cc1)NC(=O)[C@H](C)NC(=O)[C@H](CCCNC(=N)N)NC(=O)[C@@H](Cc1ccccc1)NC(C)=O)C(=O)N[C@@H](CC(N)=O)C(=O)N[C@@H](CC(C)C)C(=O)N[C@H](C(=O)N[C@H](C(=O)N[C@@H](CCCNC(=N)N)C(=O)N[C@@H](CCC(N)=O)C(=O)N[C@@H](CCCNC(=N)N)C(=O)N[C@@H](Cc1ccc(O)cc1)C(N)=O)[C@@H](C)O)[C@@H](C)CC, also called compound No. 35) [Ac-[D-Phe24, Ala26, Ile28,31]-PYY(24-36)]	14
Morpholinocarbonyl-E[dP]RH[Cha][Cha]NL[Aib]TRQR[Cha]-NH2 (SMILES CC(C)C[C@H](NC(=O)[C@H](CC(N)=O)NC(=O)[C@H](CC1CCCCC1)NC(=O)[C@H](CC1CCCCC1)NC(=O)[C@H](Cc1c[nH]cn1)NC(=O)[C@H](CCCNC(=N)N)NC(=O)[C@H]1CCCN1C(=O)[C@H](CCC(=O)O)NC(=O)N1CCOCC1)C(=O)NC(C)(C)C(=O)N[C@H](C(=O)N[C@@H](CCCNC(=N)N)C(=O)N[C@@H](CCC(N)=O)C(=O)N[C@@H](CCCNC(=N)N)C(=O)N[C@@H](CC1CCCCC1)C(N)=O)[C@@H](C)O, also called compound No. 174) [Morpholinocarbonyl-[Glu23, D-Pro24, Cha27,28,36, Aib31]-PYY(23-36)]	1.9
Ac-YYASLRAYINLITRQRY-NH2 (also called compound No. 5) [Ac-[Ala26, Ile28,31]-PYY(20-36)]	9.8
Ac-[dCha]RAYINLITRQRY-NH2 (SMILES CC[C@H](C)[C@H](NC(=O)[C@H](Cc1ccc(O)cc1)NC(=O)[C@H](C)NC(=O)[C@H](CCCNC(=N)N)NC(=O)[C@@H](CC1CCCCC1)NC(C)=O)C(=O)N[C@@H](CC(N)=O)C(=O)N[C@@H](CC(C)C)C(=O)N[C@H](C(=O)N[C@H](C(=O)N[C@@H](CCCNC(=N)N)C(=O)N[C@@H](CCC(N)=O)C(=O)N[C@@H](CCCNC(=N)N)C(=O)N[C@@H](Cc1ccc(O)cc1)C(N)=O)[C@@H](C)O)[C@@H](C)CC, also called compound No. 37) [Ac-[D-Cha24, Ala26, Ile28,31]-PYY(24-36)]	7.6
Ac-E[dP]R[4Pal][Cha]YNK[Aib]TRQR[Cha]-NH2 (SMILES CC(=O)N[C@@H](CCC(=O)O)C(=O)N1CCC[C@@H]1C(=O)N[C@@H](CCCNC(=N)N)C(=O)N[C@@H](Cc1ccncc1)C(=O)N[C@@H](CC1CCCCC1)C(=O)N[C@@H](Cc1ccc(O)cc1)C(=O)N[C@@H](CC(N)=O)C(=O)N[C@@H](CCCCN)C(=O)NC(C)(C)C(=O)N[C@H](C(=O)N[C@@H](CCCNC(=N)N)C(=O)N[C@@H](CCC(N)=O)C(=O)N[C@@H](CCCNC(=N)N)C(=O)N[C@@H](CC1CCCCC1)C(N)=O)[C@@H](C)O, also called compound No. 139) [Ac-[Glu23, D-Pro24, Pya(4)26, Cha27,36, Tyr28, Lys30, Aib31]-PYY(23-36)]	2.2
X11-S[dP]RH[Cha][Cha]NL[Aib]TRQR[Cha]-NH2 (SMILES CC(C)C[C@H](NC(=O)N[C@@H](CO)C(=O)N1CCC[C@@H]1C(=O)N[C@@H](CCCNC(=N)N)C(=O)N[C@@H](Cc1c[nH]cn1)C(=O)N[C@@H](CC1CCCCC1)C(=O)N[C@@H](CC1CCCCC1)C(=O)N[C@@H](CC(N)=O)C(=O)N[C@@H](CC(C)C)C(=O)NC(C)(C)C(=O)N[C@H](C(=O)N[C@@H](CCCNC(=N)N)C(=O)N[C@@H](CCC(N)=O)C(=O)N[C@@H](CCCNC(=N)N)C(=O)N[C@@H](CC1CCCCC1)C(N)=O)[C@@H](C)O)C(=O)O, also called compound No. 184) [[(1S)-1-carboxy-3-methylbutyl]carbamoyl-[D-Pro24, Cha27,28,36, Aib31]-PYY(23-36)]	1.5

// below: IC50 Ratio (vs PYY(3-36)) requested for another binder
Looking up [dL]RAYINLITRQRY-NH2 (N-terminus assumed; SMILES CC[C@H](C)[C@H](NC(=O)[C@H](Cc1ccc(O)cc1)NC(=O)[C@H](C)NC(=O)[C@H](CCCNC(=N)N)NC(=O)[C@H](N)CC(C)C)C(=O)N[C@@H](CC(N)=O)C(=O)N[C@@H](CC(C)C)C(=O)N[C@H](C(=O)N[C@H](C(=O)N[C@@H](CCCNC(=N)N)C(=O)N[C@@H](CCC(N)=O)C(=O)N[C@@H](CCCNC(=N)N)C(=O)N[C@@H](Cc1ccc(O)cc1)C(N)=O)[C@@H](C)O)[C@@H](C)CC, also called compound No. 24) [[D-Leu24, Ala26, Ile28,31]-PYY(24-36)] , I found its IC50 Ratio (vs PYY(3-36)) recorded as 14
